Sourced from patent US20230414607A1

# testSummary: AUC and Cmax target safe levels of CYP3A4 substrate drugs (Table 1)
# measurementConditions: upper limit where benefits outweigh risks; approximation, can vary by about ±25%

molecule | readoutUnit | AUC target safe level, Fold change
C=CCN1CC[C@]23c4c5ccc(O)c4O[C@H]2[C@@H](OCCOCCOCCOCCOCCOCCOCCOC)CC[C@@]3(O)[C@H]1C5 [naloxegol] | fold | 3.41
CCN(CC)CCNC(=O)c1c(C)[nH]c(/C=C2\C(=O)Nc3ccc(F)cc32)c1C [sunitinib] | fold | 1.51
CC(C)(NC(=O)C1=C(O)[C@@H]2Oc3c(O)ccc4c3[C@@]23CCN(CC2CC2)[C@H](C4)[C@]3(O)C1)c1nc(-c2ccccc2)no1 [naldemedine] | fold | 1.9
CC(C)(C)c1cc(C(C)(C)C)c(NC(=O)c2c[nH]c3ccccc3c2=O)cc1O [ivacaftor] | fold | 3
O=C1CCc2ccc(OCCCCN3CCN(c4cccc(Cl)c4Cl)CC3)cc2N1 [aripiprazole] | fold | 1.7

----------
# testSummary: Example 2: posaconazole pharmacokinetics in normal-weight and obese subjects
# Assay type: in vivo, human
# measurementConditions: human, plasma, oral, obese group; read-out: Mean washout half-life (converted)
endpointLabel: half-life (h)

smilesData | reportedResult
CC[C@@H]([C@H](C)O)n1ncn(-c2ccc(N3CCN(c4ccc(OC[C@@H]5CO[C@@](Cn6cncn6)(c6ccc(F)cc6F)C5)cc4)CC3)cc2)c1=O | 52.6

----------
# Test system: CYP3A
# testSummary: Example 2: lurasidone pharmacokinetics during and after posaconazole (drug-drug interaction)
# Assay type: in vivo
# measurementConditions: human, plasma, oral, 20 mg, Normal, Day 26 (posaconazole given Days 4-17); read-out: Lurasidone elimination half-life, arithmetic mean ± S.E. (converted)

compound | half-life [h]
O=C1[C@@H]2[C@H]3CC[C@H](C3)[C@@H]2C(=O)N1C[C@@H]1CCCC[C@H]1CN1CCN(c2nsc3ccccc23)CC1 [lurasidone] | 50

----------
# testSummary: Plasma ranolazine pharmacokinetics before, during and after posaconazole in normal-weight and obese subjects
# Type: in vivo
# measurementConditions: human, oral, 500 mg, Day 1, obese subjects, ranolazine 500 mg ER, read-out: Geometric mean Cmax

molecule | readoutUnit | Cmax
COc1ccccc1OCC(O)CN1CCN(CC(=O)Nc2c(C)cccc2C)CC1 (stereo not shown) | ng/mL | 559

----------
# testSummary: Plasma ranolazine pharmacokinetics before, during and after posaconazole in normal-weight and obese subjects
# Format: in vivo, human
# measurementConditions: human, plasma, oral, 500 mg, Day 22 (7 days after last posaconazole dose); normal-weight subjects; ranolazine 500 mg ER; mean ± SD; read-out: Cmax
endpointLabel: Cmax (ng/mL)

molecule | readoutUnit | reportedResult
COc1ccccc1OCC(O)CN1CCN(CC(=O)Nc2c(C)cccc2C)CC1 (stereo not shown) | ng/mL | 974

----------
# Tested on: CYP3A
# testSummary: Example 2: lurasidone pharmacokinetics during and after posaconazole (drug-drug interaction)
# Format: in vivo
# measurementConditions: human, plasma, oral, 20 mg, Normal, Day 23 (posaconazole given Days 4-17); read-out: Lurasidone elimination half-life, arithmetic mean ± S.E. (converted)

compound | testTarget | readoutUnit | half-life
O=C1[C@@H]2[C@H]3CC[C@H](C3)[C@@H]2C(=O)N1C[C@@H]1CCCC[C@H]1CN1CCN(c2nsc3ccccc23)CC1 [lurasidone] | CYP3A | h | 48

----------
# System: CYP3A
# testSummary: Example 2: lurasidone pharmacokinetics during and after posaconazole (drug-drug interaction)
# Assay type: in vivo
# measurementConditions: human, plasma, oral, 20 mg, Normal, Day 30 (posaconazole given Days 4-17); read-out: Lurasidone elimination half-life, arithmetic mean ± S.E. (converted)

smilesData | testTarget | half-life [h]
O=C1[C@@H]2[C@H]3CC[C@H](C3)[C@@H]2C(=O)N1C[C@@H]1CCCC[C@H]1CN1CCN(c2nsc3ccccc23)CC1 | CYP3A | 45

----------
# testSummary: Plasma ranolazine pharmacokinetics before, during and after posaconazole in normal-weight and obese subjects
# Type: in vivo, human
# measurementConditions: human, plasma, oral, 500 mg, Day 29 (14 days after last posaconazole dose); normal-weight subjects; ranolazine 500 mg ER; mean ± SD

compound | readoutUnit | AUC(0-inf)
COc1ccccc1OCC(O)CN1CCN(CC(=O)Nc2c(C)cccc2C)CC1 (stereo not shown) | ng·h/mL | 8570

----------
# Test system: CYP3A
# testSummary: Example 2: lurasidone pharmacokinetics during and after posaconazole (drug-drug interaction)
# Assay type: in vivo
# measurementConditions: human, in vivo, 20 mg, Corrected Cmax, arithmetic mean ± standard error

smilesData | Cmax (ng/mL)
O=C1[C@@H]2[C@H]3CC[C@H](C3)[C@@H]2C(=O)N1C[C@@H]1CCCC[C@H]1CN1CCN(c2nsc3ccccc23)CC1 | 17.1

----------
# testSummary: Pooled posaconazole steady-state concentration and elimination half-life, clinical studies BOW-001 and BOW-002
# Assay type: in vivo, human
# measurementConditions: human, in vivo, All Normal (pooled), normal weight patients; read-out: t1/2, Mean (elimination half-life) (converted)
# Source text: The two clinical studies used the same protocol to measure posaconazole's elimination half-life, allowing for the data for normal patients from each study to be combined (“All Normal”) and data for obese patients from each study to be combined (“All Obese”).

molecule | half-life [h]
CC[C@@H]([C@H](C)O)n1ncn(-c2ccc(N3CCN(c4ccc(OC[C@@H]5CO[C@@](Cn6cncn6)(c6ccc(F)cc6F)C5)cc4)CC3)cc2)c1=O [posaconazole] | 33.6

----------
# testSummary: Example 2: posaconazole pharmacokinetics in normal-weight and obese subjects
# Assay type: in vivo, human
# measurementConditions: human, plasma, oral, two obese subjects; read-out: very long half-life values (converted)

smilesData | readoutUnit | half-life
CC[C@@H]([C@H](C)O)n1ncn(-c2ccc(N3CCN(c4ccc(OC[C@@H]5CO[C@@](Cn6cncn6)(c6ccc(F)cc6F)C5)cc4)CC3)cc2)c1=O | h | 121

----------
# testSummary: AUC and Cmax target safe levels of CYP3A4 substrate drugs (Table 1)
# measurementConditions: human
Documented Cmax target safe level, Fold change across a set of compounds

compound | readoutUnit | Cmax target safe level, Fold change
COc1cccc(-c2c(C)n(Cc3c(F)cccc3C(F)(F)F)c(=O)n(C[C@H](NCCCC(=O)O)c3ccccc3)c2=O)c1F [elagolix sodium] | fold | 1.77
COc1cc2c(cc1OC)CC(=O)N(CCCN(C)C[C@H]1Cc3cc(OC)c(OC)cc31)CC2 [ivabradine] | fold | 1.6
CN1CC[C@@H](NC(=O)Nc2ccc(C#N)cc2)C[C@@H]1c1nc2ccccc2[nH]1 [glasdegib] | fold | 1.4
COc1c(OCCCN2CCOCC2)ccc2c1N=C(NC(=O)c1cnc(N)nc1)N1CCN=C21 [copanlisib] | fold | 1.03
CNC(=O)c1ccc(N2C(=S)N(c3cnc(C#N)c(C(F)(F)F)c3)C(=O)C23CCC3)cc1F [apalutamide] | fold | 1.38
COc1cc2c(cc1OC)[C@H]1C[C@@H](O)[C@H](CC(C)C)CN1CC2 [[+]-α-HTBZ] | fold | 1.7
O=c1ccc2ccc(OCCCCN3CCN(c4cccc5sccc45)CC3)cc2[nH]1 [brexpiprazole] | fold | 1.2

----------
# testSummary: AUC and Cmax target safe levels of CYP3A4 substrate drugs (Table 1)
# measurementConditions: human
# Text: In various embodiments, the “Target safe levels” are non-limiting examples of the upper limit of fold change or percent of baseline where in some embodiments the benefits of treating the patient for the condition or disease for which the CYP3A4 substrate drug is indicated outweigh the risks associated with the effects of a drug-drug interaction. […]
endpointLabel: AUC target safe level, Fold change (fold)

compound | endpointLabel | reportedResult
CC(=O)OCC(=O)[C@@]12N=C(C)O[C@@H]1C[C@H]1[C@@H]3CCC4=CC(=O)C=C[C@]4(C)[C@H]3[C@@H](O)C[C@@]12C | AUC target safe level, Fold change | 3
CN(C(=O)c1ccccc1)[C@@H]1C[C@H]2O[C@@](C)([C@@H]1O)n1c3ccccc3c3c4c(c5c6ccccc6n2c5c31)C(=O)NC4 | AUC target safe level, Fold change | 3.5
Cc1[nH]c2ccccc2c1CCNCc1ccc(/C=C/C(=O)NO)cc1 | AUC target safe level, Fold change | 1.73
CNC(=O)c1ccc(N2C(=S)N(c3cnc(C#N)c(C(F)(F)F)c3)C(=O)C23CCC3)cc1F [apalutamide] | AUC target safe level, Fold change | 1.24
CC(C)COc1ccc(CNC(=O)N(Cc2ccc(F)cc2)C2CCN(C)CC2)cc1 | AUC target safe level, Fold change | 3
COc1cc2c(cc1OC)CC(=O)N(CCCN(C)C[C@H]1Cc3cc(OC)c(OC)cc31)CC2 | AUC target safe level, Fold change | 2.1
CN1CC[C@@H](NC(=O)Nc2ccc(C#N)cc2)C[C@@H]1c1nc2ccccc2[nH]1 | AUC target safe level, Fold change | 2.4
C[C@H](Nc1ncnc2[nH]cnc12)c1cc2cccc(Cl)c2c(=O)n1-c1ccccc1 | AUC target safe level, Fold change | 2
CCN1CCN(Cc2ccc(Nc3ncc(F)c(-c4cc(F)c5nc(C)n(C(C)C)c5c4)n3)nc2)CC1 | AUC target safe level, Fold change | 1.3
CC(C)(CO)c1cc2cc(NC(=O)C3(c4ccc5c(c4)OC(F)(F)O5)CC3)c(F)cc2n1C[C@@H](O)CO | AUC target safe level, Fold change | 2.0
COc1cc2c(cc1OC)[C@H]1C[C@@H](O)[C@H](CC(C)C)CN1CC2 [[+]-α-HTBZ] | AUC target safe level, Fold change | 2.1
CCc1cc(/C(C)=N/OCc2ccc(C3CCCCC3)c(C(F)(F)F)c2)ccc1CN1CC(C(=O)O)C1 | AUC target safe level, Fold change | 10.4
O=c1ccc2ccc(OCCCCN3CCN(c4cccc5sccc45)CC3)cc2[nH]1 | AUC target safe level, Fold change | 2
COc1cccc(-c2c(C)n(Cc3c(F)cccc3C(F)(F)F)c(=O)n(C[C@H](NCCCC(=O)O)c3ccccc3)c2=O)c1F [elagolix sodium] | AUC target safe level, Fold change | 2.2
N#CC[C@H](C1CCCC1)n1cc(-c2ncnc3[nH]ccc23)cn1 | AUC target safe level, Fold change | 1.91
